assay.system: BuChE from human serum (Homo sapiens)
Sequence (P06276 29-602): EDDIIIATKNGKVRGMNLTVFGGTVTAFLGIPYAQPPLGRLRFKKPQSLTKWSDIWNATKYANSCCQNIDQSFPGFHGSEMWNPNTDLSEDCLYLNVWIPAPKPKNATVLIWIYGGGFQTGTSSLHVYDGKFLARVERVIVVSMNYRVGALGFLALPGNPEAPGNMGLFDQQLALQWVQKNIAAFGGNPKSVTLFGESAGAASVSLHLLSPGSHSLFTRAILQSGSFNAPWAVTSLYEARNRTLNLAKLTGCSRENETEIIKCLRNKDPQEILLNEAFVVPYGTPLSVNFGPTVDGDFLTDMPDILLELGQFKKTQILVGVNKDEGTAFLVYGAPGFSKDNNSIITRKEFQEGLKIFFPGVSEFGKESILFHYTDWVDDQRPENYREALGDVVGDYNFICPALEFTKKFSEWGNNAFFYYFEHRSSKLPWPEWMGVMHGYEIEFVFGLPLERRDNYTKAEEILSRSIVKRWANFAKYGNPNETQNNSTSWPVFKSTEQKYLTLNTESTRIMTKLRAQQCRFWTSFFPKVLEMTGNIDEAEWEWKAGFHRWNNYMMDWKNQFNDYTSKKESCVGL
method.description: Inhibition of BuChE
Format: biochemical
experimental.parameters: read-out: hBuChE % Inhibition at 10 µM
// bucketize inhibition at 10 µM: bottom end (below 50%), midrange (50% to below 80%), top end (80% or more)

molecule | assay.system | category
O=C(c1nc2ccc(OCCCN3CCCC3)cc2s1)N1CCCC1 | BuChE from human serum (Homo sapiens) | bottom end
CC1CCCN(CCCOc2ccc3nc(C(=O)N4CCCC(C)C4)sc3c2)C1 (centres unmarked) | BuChE from human serum (Homo sapiens) | bottom end
O=C(NCCN1CCCC1)c1nc2ccc(OCCCNCCN3CCCC3)cc2s1 | BuChE from human serum (Homo sapiens) | top end
O=C(c1nc2ccc(OCCCCCN3CCCC3)cc2s1)N1CCCC1 | BuChE from human serum (Homo sapiens) | midrange
O=C(c1nc2ccc(OCCCCN3CCCCC3)cc2s1)N1CCCCC1 | BuChE from human serum (Homo sapiens) | midrange
O=C(c1nc2ccc(OCCCN3CCCCC3)cc2s1)N1CCCCC1 | BuChE from human serum (Homo sapiens) | bottom end
O=C(NC1CCCC1)c1nc2ccc(OCCCCCNC3CCCC3)cc2s1 | BuChE from human serum (Homo sapiens) | top end
O=C(c1nc2ccc(OCCN3CCCC3)cc2s1)N1CCCC1 | BuChE from human serum (Homo sapiens) | midrange

Origin of values: paper PMC9937012
